Measured values drawn from patent US20200024330A1 for this set.

# subject-of-test: HIV-1 92RW020 envelope glycoprotein (Env) (HIV-1)
# test-method-notes: cell-based or functional assay
metric: IC50 neutralization (ng/mL)
Number only, in ng/mL; omit the unit.

Request: Looking for the measured IC50 neutralization of PGT-125 (antibody, V domains shown) VH: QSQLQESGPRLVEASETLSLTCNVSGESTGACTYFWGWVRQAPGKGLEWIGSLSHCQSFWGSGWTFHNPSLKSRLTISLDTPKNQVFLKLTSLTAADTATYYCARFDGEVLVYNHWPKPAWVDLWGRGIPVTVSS VL: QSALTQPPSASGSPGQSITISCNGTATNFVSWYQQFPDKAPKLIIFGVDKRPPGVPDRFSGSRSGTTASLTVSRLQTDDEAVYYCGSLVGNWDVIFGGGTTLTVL , can you help?
Response: 2.8

Request: For PGT-135 (antibody, V domains shown) VH: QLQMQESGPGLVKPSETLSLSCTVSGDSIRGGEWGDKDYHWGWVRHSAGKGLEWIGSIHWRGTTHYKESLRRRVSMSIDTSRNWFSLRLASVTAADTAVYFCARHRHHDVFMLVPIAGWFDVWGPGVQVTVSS VL: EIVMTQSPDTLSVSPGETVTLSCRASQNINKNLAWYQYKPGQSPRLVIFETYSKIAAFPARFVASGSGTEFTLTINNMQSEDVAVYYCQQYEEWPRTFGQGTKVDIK then?
Response: 157

Request: For PGT-123 (antibody, V domains shown) VH: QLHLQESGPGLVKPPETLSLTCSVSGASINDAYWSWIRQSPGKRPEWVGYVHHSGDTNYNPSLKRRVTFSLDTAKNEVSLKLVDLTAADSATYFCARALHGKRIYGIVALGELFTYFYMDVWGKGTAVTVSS VL: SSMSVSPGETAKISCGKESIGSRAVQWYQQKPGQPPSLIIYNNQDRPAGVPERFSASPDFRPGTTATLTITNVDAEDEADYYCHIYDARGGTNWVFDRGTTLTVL then?
Response: 3.8
